Target: human LPA1 (Homo sapiens)
Construct: expressed in transfected cells; host or cells: CHO-K1
Assay: In vitro LPA1 calcium flux antagonist assay - Bioduro protocol
Type: cell-based
Conditions: CHO-K1 cells overexpressing human LPA1 and G15a; LPA challenge at EC80; calcium mobilization on FLIPR Tetra; read-out: IC50
What IC50 was measured for each of the following?
State just the number; it will be interpreted in µM.

Q: Would you please give the reported IC50 of CCOc1c(C)ccc(-c2ccc(NC3(C(=O)O)CCOCC3)cc2COC2CCCC2)c1C with human LPA1 (Homo sapiens)?
A: 0.00812

Q: # return IC50 of O=C(O)C1(Nc2ccc(-c3cccc(OC4CCC4)c3F)c(COC3CC3)c2)CCOCC1 (system: human LPA1 (Homo sapiens))
A: 0.173

Q: Please look at COc1cc(OC)cc(-c2ccc(OCCC(=O)O)cc2COC2Cc3ccccc3C2)c1 and tell me its recorded IC50 on human LPA1 (Homo sapiens).
A: 0.628

Q: Output reported IC50 of the molecule COc1ccc(C)c(-c2ccc(NC3(C(=O)O)CCOCC3)cc2COC2CCCC2)c1 on human LPA1 (Homo sapiens).
A: 0.314

---

Target: human LPA1 (Homo sapiens, UniProt Q92633)
Construct: expressed in transfected cells; host or cells: CHO-K1
Sequence (Q92633 whole entry): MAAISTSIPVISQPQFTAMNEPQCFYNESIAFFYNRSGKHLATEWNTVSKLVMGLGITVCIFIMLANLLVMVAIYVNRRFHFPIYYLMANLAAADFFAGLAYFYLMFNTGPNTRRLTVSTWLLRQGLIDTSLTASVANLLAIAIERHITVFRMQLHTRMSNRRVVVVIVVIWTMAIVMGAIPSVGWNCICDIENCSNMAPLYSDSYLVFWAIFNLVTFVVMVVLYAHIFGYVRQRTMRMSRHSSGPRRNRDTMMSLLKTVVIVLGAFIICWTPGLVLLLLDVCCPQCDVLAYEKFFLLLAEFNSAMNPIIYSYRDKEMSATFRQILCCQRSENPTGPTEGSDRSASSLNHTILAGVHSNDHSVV
Experiment: In vitro LPA1 functional antagonist assay (calcium mobilization, FLIPR)
Format: cell-based
Details: Table B1; CHO-K1 cells overexpressing human LPA1, Oleoyl LPA challenge at EC80; read-out: Activity (IC50 class)
Description: In Vitro LPA1 Functional Antagonist Assay CHO-K1 cells overexpressing human LPA1 were seeded in a total volume of 20 μL into black-walled, clear-bottom. […] Compound antagonist activity was measured on a FLIPR Tetra (MSD). Calcium mobilization was monitored for 2 minutes and 10 μL Oleoyl LPA in HBSS/20 mM Hepes was added to the cells 5 seconds into the assay. […] LPA agonist activity was measured on a FLIPR Tetra (MSD). […] Compound activity was analyzed using CBIS data analysis suite (ChemInnovation, CA). […]
measurement.label: IC50

Q: Output IC50 of COc1cc(-c2ccc(NC3(C(=O)O)CC3)cc2COC2Cc3ccccc3C2)cc(OC)c1C
A: < 1 µM

Q: Name the recorded IC50 of the item COc1cc(-c2ccc(NCCC(=O)O)cc2COCc2ccccc2)ccc1C(F)F in your answer.
A: 1 to 10 µM

Q: Complete the entry with IC50 for COc1cc(OC)cc(-c2ccc(OCCC(=O)O)cc2COC2Cc3ccccc3C2)c1
A: < 1 µM

Q: Check the records and state IC50 for COc1cc(OC)cc(-c2ccc(NCCC(=O)O)cc2COC2Cc3ccccc3C2)c1
A: 1 to 10 µM

Q: Tell me IC50 reported for COc1cc(-c2ccc(OCCC(=O)O)cc2COC2Cc3ccccc3C2)cc(OC)c1C
A: < 1 µM

Q: Read the entry COc1cc(-c2ccc(NCCC(=O)O)cc2COC2Cc3ccccc3C2)cc(OC)c1C and write its reported IC50.
A: < 1 µM

---

Biological target: human LPA1 (Homo sapiens, UniProt Q92633)
Construct: expressed in transfected cells; host or cells: CHO-K1
Experiment: In vitro LPA1 calcium flux antagonist assay - Bioduro protocol
Format: cell-based
Conditions: CHO-K1 cells overexpressing human LPA1 and G15a; LPA challenge at EC80; calcium mobilization on FLIPR Tetra; read-out: IC50
pIC50: −log10 of the molar value.
Label true (1) when pIC50 >= 7; otherwise false (0).

Q: Does pIC50 meet or surpass 7 for COc1cc(-c2ccc(NC3(C(=O)O)CCC(C)(OC)CC3)cc2COC2CCCC2)c(F)c(OC)c1C (single isomer, unassigned) [Compound 238] ?
A: false (0)

Q: # check: pIC50 of COc1cc(-c2ccc(OC3(C(=O)O)CCOCC3)cc2CCC2CCOC2)c(F)c(OC)c1C (stereo not shown) [Compound 260] is greater than or equal to 7
A: false (0)

Q: Threshold query (pIC50 >= 7) on COc1cc(OC)cc(-c2ccc(NC3(C(=O)O)CCOCC3)cc2COC2COc3ccccc32)c1 (single isomer, unassigned) [Compound 158]
A: true (1)

Q: Kindly determine if pIC50 recorded for COc1cc(-c2ccc(OCC3(C(=O)O)CCOCC3)cc2COC2CCCC2)c(F)c(OC)c1C [Compound 232] is above or exactly 7.
A: false (0)

Q: Is pIC50 at least 7? Consider COc1cc(-c2ccc(N(C)C3(C(=O)O)CCOCC3)cc2COC2CCCC2)c(F)c(OC)c1C [Compound 239]
A: false (0)
